From: patent US20230159546A1

TEST_SYSTEM: SARS-CoV-2 3CL-protease (Severe acute respiratory syndrome coronavirus 2, UniProt P0DTD1)
TEST_PROTOCOL: SARS-CoV-2 3C-like (3CL) protease fluorescence assay (FRET)
Assay type: biochemical
EXPERIMENTAL_SETUP: recombinant SARS-CoV-2 3CL-protease 10 nM, 30 min preincubation at RT, duplicate; read-out: FRET IC50
ENDPOINT_LABEL: IC50

- CC(C)NC(=O)C(C)(C)C(=O)N1C[C@]2(C[C@H]1C#N)C(=O)Nc1ccccc12 [Example 82]: > 1000 nM
- N#C[C@@H]1C[C@@]2(CN1S(=O)(=O)NCc1nccs1)C(=O)Nc1ccccc12 [Example 63]: > 1000 nM
- N#C[C@@H]1C[C@@]2(CN1C(=O)[C@H](Cc1ccccc1)C(=O)NC1CC1)C(=O)Nc1ccccc12 [Example 116]: 100 to 1000 nM

----------
TEST_SYSTEM: SARS-CoV-2 3CL-protease (Severe acute respiratory syndrome coronavirus 2, UniProt P0DTD1)
TEST_PROTOCOL: SARS-CoV-2 3C-like (3CL) protease fluorescence assay (FRET)
Format: biochemical
EXPERIMENTAL_SETUP: recombinant SARS-CoV-2 3CL-protease 10 nM, 30 min preincubation at RT, duplicate; read-out: FRET IC50
The following molecules are listed with their measured IC50 values.
ENDPOINT_LABEL: IC50

• N#C[C@@H]1C[C@@]2(CN1C(=O)C(Cc1ccccc1)C(=O)C1CCCCC1)C(=O)Nc1ccccc12 (some centres unmarked) [Example 93] = > 1000 nM
• CC(C)(C(=O)c1ccccc1)C(=O)N1C[C@]2(C[C@H]1C#N)C(=O)Nc1ccccc12 [Example 111] = > 1000 nM
• CC(C)NS(=O)(=O)N1C[C@]2(C[C@H]1C#N)C(=O)Nc1ccccc12 [Example 57] = > 1000 nM
• CC1(NC(=O)C(=O)N2C[C@]3(C[C@H]2C#N)C(=O)Nc2ccccc23)CCCC1 [Example 179] = 100 to 1000 nM
• N#C[C@@H]1C[C@@]2(CN1C(=O)C(=O)Nc1ccnc(C(F)(F)F)c1)C(=O)Nc1ccccc12 [Example 167] = > 1000 nM
• N#C[C@@H]1C[C@@]2(CN1C(=O)NC1CC1)C(=O)Nc1ccccc12 [Example 48] = > 1000 nM
• N#C[C@@H]1C[C@@]2(CN1C(=O)C(=O)N[C@H]1CCC(F)(F)C1)C(=O)Nc1ccccc12 [Example 146] = 100 to 1000 nM
• Cc1cccc(NC(=O)C(=O)N2C[C@]3(C[C@H]2C#N)C(=O)Nc2ccccc23)n1 [Example 168] = > 1000 nM
• N#C[C@@H]1C[C@@]2(CN1C(=O)[C@H](Cc1ccccc1)C(=O)NC1CCCCC1)C(=O)Nc1ccccc12 [Example 118] = 100 to 1000 nM
• N#C[C@@H]1C[C@@]2(CN1C(=O)OCn1cccn1)C(=O)Nc1ccccc12 [Example 87] = > 1000 nM
• N#C[C@@H]1C[C@@]2(CN1S(=O)(=O)NC1CCC1)C(=O)Nc1ccccc12 [Example 59] = > 1000 nM
• CC(C)CC(C(=O)N1C[C@]2(C[C@H]1C#N)C(=O)Nc1ccccc12)c1ccc(NC(=O)c2cc3c(F)cccc3[nH]2)cn1 (some centres unmarked) [Example 31] = > 1000 nM
• N#C[C@@H]1C[C@@]2(CN1C(=O)C(=O)Nc1ccccc1)C(=O)Nc1ccccc12 [Example 73] = > 1000 nM
• N#C[C@@H]1C[C@@]2(CN1C(=O)C(=O)OC1CC1)C(=O)Nc1ccccc12 [Example 125] = > 1000 nM
• N#C[C@@H]1C[C@@]2(CN1C(=O)C1CCCCC1)C(=O)Nc1ccccc12 [Example 43] = > 1000 nM
• N#C[C@@H]1C[C@@]2(CN1C(=O)CC(=O)N[C@H]1CC[C@@H](O)C1)C(=O)Nc1ccccc12 [Example 182] = > 1000 nM
• N#C[C@@H]1C[C@@]2(CN1C(=O)C(=O)NCc1nccs1)C(=O)Nc1ccccc12 [Example 81] = > 1000 nM
• N#C[C@@H]1C[C@@]2(CN1C(=O)C(=O)NCCC1CCCCC1)C(=O)Nc1ccccc12 [Example 155] = 100 to 1000 nM
• CC(C)NC(=O)C(=O)N1C[C@]2(C[C@H]1C#N)C(=O)Nc1ccccc12 [Example 89] = > 1000 nM
• CC(C)CC(F)(C(=O)N(C)c1ccccc1)C(=O)N1C[C@]2(C[C@H]1C#N)C(=O)Nc1ccccc12 (some centres unmarked) [Example 19] = > 1000 nM
• CC(C)CC(F)(C(=O)Nc1cc(F)cc(F)c1)C(=O)N1C[C@]2(C[C@H]1C#N)C(=O)Nc1ccccc12 (some centres unmarked) [Example 20] = > 1000 nM
• CCCC(CCC)(CCC)NC(=O)C(=O)N1C[C@]2(C[C@H]1C#N)C(=O)Nc1ccccc12 [Example 185] = 100 to 1000 nM
• N#C[C@@H]1C[C@@]2(CN1NC(=O)C1CCCCC1)C(=O)Nc1ccccc12 [Example 141] = > 1000 nM
• CC(C)CC(C(=O)Nc1cc2ccccc2[nH]1)C(=O)N1C[C@]2(C[C@H]1C#N)C(=O)Nc1ccccc12 (some centres unmarked) [Example 4] = > 1000 nM
• N#C[C@@H]1C[C@@]2(CN1S(=O)(=O)NC1CCCC1)C(=O)Nc1ccccc12 [Example 60] = > 1000 nM
• CC(C)CN1C[C@]2(C[C@H]1C#N)C(=O)Nc1ccccc12 [Example 64] = > 1000 nM
• N#C[C@@H]1C[C@@]2(CN1C(=O)NC1CCCC1)C(=O)Nc1ccccc12 [Example 49] = > 1000 nM
• N#C[C@@H]1C[C@@]2(CN1C(=O)C(=O)OCc1ccccc1)C(=O)Nc1ccccc12 [Example 126] = > 1000 nM
• CC(C)CC(C(=O)Nc1c(F)cccc1Cl)C(=O)N1C[C@]2(C[C@H]1C#N)C(=O)Nc1ccccc12 (some centres unmarked) [Example 10] = > 1000 nM
